The entries below are paired with their reported Ec50 (nM), cAMP.
Molecular target: human melanocortin-4 receptor (recombinant hMC4-R) (human, UniProt P32245 1-332)
Sequence (P32245 whole entry): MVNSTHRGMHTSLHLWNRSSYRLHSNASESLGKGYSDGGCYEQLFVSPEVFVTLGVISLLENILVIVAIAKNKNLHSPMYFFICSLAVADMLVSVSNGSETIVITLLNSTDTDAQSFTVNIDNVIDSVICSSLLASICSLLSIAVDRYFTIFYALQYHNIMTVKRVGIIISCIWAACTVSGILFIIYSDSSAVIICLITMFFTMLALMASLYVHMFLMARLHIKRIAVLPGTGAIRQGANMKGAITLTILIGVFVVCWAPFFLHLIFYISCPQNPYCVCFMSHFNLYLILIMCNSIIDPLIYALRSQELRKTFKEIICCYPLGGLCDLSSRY
Assay: cell-based or functional assay
Bridge positions count the residues as written; N and C are the ends. Square brackets hold non-standard residues; d marks the D form. Met(O2) = CS(=O)(=O)CC[C@H](N)C(=O)O; Orn = NCCC[C@H](N)C(=O)O; Dab = NCC[C@H](N)C(=O)O
Report field: quantity (unit follows the number).

Example entries and their recorded answers appear below.
• Ac-REN[dF]RW[Orn]-OH (lactam 2-7) [Peptide No. 20: Ac-Arg-cyclo(Glu-Asn-D-Phe-Arg-Trp-Orn)-OH] = 12 nM
• Ac-RD[Dab][dF]RWK-OH (lactam 2-7) [Asp...Lys analog of peptides No. 5 and No. 42: Ac-Arg-cyclo(Asp-Dab-D-Phe-Arg-Trp-Lys)-OH] = 4 nM
• Ac-RDN[dF]RWK-NH2 (lactam 2-7; SMILES CC(=O)N[C@@H](CCCNC(=N)N)C(=O)N[C@H]1CC(=O)NCCCC[C@@H](C(N)=O)NC(=O)[C@H](Cc2c[nH]c3ccccc23)NC(=O)[C@H](CCCNC(=N)N)NC(=O)[C@@H](Cc2ccccc2)NC(=O)[C@H](CC(N)=O)NC1=O, also called Peptide Structure (Asp...Lys) in the rows of No. 34 and No. 46) [Asp...Lys analog of peptides No. 34 and No. 46: Ac-Arg-cyclo(Asp-Asn-D-Phe-Arg-Trp-Lys)-NH2] = 42 nM
• Ac-RD[Orn][dF]RWK-NH2 (lactam 2-7) [Asp...Lys analog of peptide No. 8: Ac-Arg-cyclo(Asp-Orn-D-Phe-Arg-Trp-Lys)-NH2] = 0.8 nM
• Ac-RDQ[dF]RWK-OH (lactam 2-7, also called Peptide Structure (Asp...Lys) in the row of No. 11) [Asp...Lys analog of peptide No. 11: Ac-Arg-cyclo(Asp-Gln-D-Phe-Arg-Trp-Lys)-OH] = 19 nM

Prompt line: I'd like to know its Ec50 (nM), cAMP. The binder in question is XEHFRWX (N-terminal acetyl; Nle at 1; D-Phe at 4; Orn at 7; side-chain lactam Glu2-Orn7; C-terminal amide (-NH2)) [Peptide No. 2: Ac-Nle-cyclo(Glu-His-D-Phe-Arg-Trp-Orn)-NH2]
Response line: 0.1 nM

Prompt line: Moving on to the next binder: Ac-RE[Met(O2)][dF]RW[Orn]-NH2 (lactam 2-7) [Peptide No. 13: Ac-Arg-cyclo(Glu-Met(O2)-D-Phe-Arg-Trp-Orn)-NH2]
Response line: 5 nM

Prompt line: Moving on to the next binder: XEHFRWX (N-terminal acetyl; Nle at 1; D-Phe at 4; Orn at 7; side-chain lactam Glu2-Orn7; C-terminal -OH) [Peptide No. 1: Ac-Nle-cyclo(Glu-His-D-Phe-Arg-Trp-Orn)-OH]
Response line: 0.5 nM
